# test-target: hDGAT2 (Homo sapiens (Human), UniProt Q96PD7)
# Sequence (Q96PD7 whole entry): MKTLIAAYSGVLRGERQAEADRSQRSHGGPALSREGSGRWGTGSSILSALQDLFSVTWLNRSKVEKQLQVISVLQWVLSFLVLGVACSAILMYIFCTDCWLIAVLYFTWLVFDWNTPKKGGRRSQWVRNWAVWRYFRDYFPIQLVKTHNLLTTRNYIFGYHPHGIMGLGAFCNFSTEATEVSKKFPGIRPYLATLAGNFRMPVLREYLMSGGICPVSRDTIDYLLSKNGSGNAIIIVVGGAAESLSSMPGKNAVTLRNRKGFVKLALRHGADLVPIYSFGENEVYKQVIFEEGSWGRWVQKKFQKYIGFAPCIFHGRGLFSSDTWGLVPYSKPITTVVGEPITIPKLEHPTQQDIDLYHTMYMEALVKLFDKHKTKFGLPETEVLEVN
pIC50: −log10 of the molar value.
Entries and their pIC50

# compound, pIC50
records = [
    ("CC(C)(C)NC(=O)N1CCc2c(-c3cccc(C(F)(F)F)c3)ccc(C(=O)NCc3nccc4ccccc34)c2C1", 6.71),
    ("CC(C)(C)NC(=O)N1CCc2c(-c3cccc(C(F)(F)F)c3)ccc(C(=O)NCc3nnc4n3CCC4)c2C1", 5.69),
    ("CC(C)(C)NC(=O)N1CCc2c(-c3cccc(C(F)(F)F)c3)ccc(C(=O)NCC(c3ccccn3)N3CCOCC3)c2C1 (stereo not shown)", 6.13),
    ("Cc1nnc(CCNC(=O)c2ccc(-c3cccc(C(F)(F)F)c3)c3c2CN(C(=O)NC(C)(C)C)CC3)[nH]1", 5.92),
]
